For each entry below, report its MIC value.
# Test system: Staphylococcus aureus MSSA (SH1000)
# PROTOCOL_SUMMARY: Minimum inhibitory concentration (MIC), broth microdilution
# Format: cell-based
# TEST_CONDITIONS: Table 3; read-out: MIC S. aureus
Write the value in µM as a bare number.

input: Provide MIC value for the following compound: CCCCCCCCCCCC[N+](C)(C)CCC[N+](C)(CCC[N+](C)(C)CCCCCCCCCCCC)Cc1ccccc1.[Br-].[Br-].[Br-]
output: 1

input: Provide MIC value for the following compound: CCCCCCCCCCC[N+](C)(C)CC[N+](C)(C)CC[N+](C)(C)CCCCCCCCCCC.[Br-].[Br-].[I-]
output: 2

input: Provide MIC value for the following compound: CCCCCCCCCCCC[N+](C)(C)CCC[N+](C)(CCCC)CCC[N+](C)(C)CCCCCCCCCCCC.[Br-].[Br-].[Br-]
output: 1

input: Provide MIC value for the following compound: CCCCCCCCCC[N+](C)(C)CCN(C)CC[N+](C)(C)CCCCCCCCCC.[Br-].[Br-]
output: 2

input: Provide MIC value for the following compound: CCCCCCCCCCCC[N+](C)(C)CCN(C)CCN(C)CCN(C)C.[Br-]
output: 8

input: Provide MIC value for the following compound: CCCCCCCCCC[N+](C)(C)CC[N+](C)(C)CC[N+](C)(C)CCCCCCCCCC.[Br-].[Br-].[I-]
output: 2

input: Provide MIC value for the following compound: C=CC[N+](C)(CC[N+](C)(C)CCCCCCCCCCCCCCCC)CC[N+](C)(C)CCCCCCCCCCCCCCCC.[Br-].[Br-].[Br-]
output: 4

* * *

For each entry below, report its Lysis20 value.
# Tested on: red blood cells (defibrinated sheep blood)
# PROTOCOL_SUMMARY: Hemolysis assay (Lysis20)
# TEST_CONDITIONS: Table 4; concentration at which less than 20% of red blood cells are lysed
Include the unit right after the number.

input: Recall the reported Lysis20 of CCCCCCCCCCCC[n+]1ccc(-c2cc[n+](Cc3ccccc3)cc2)cc1 when tested on red blood cells (defibrinated sheep blood).
output: 125 µM

input: Recall the reported Lysis20 of CCCCCCCCCCCC[N+](C)(C)CCCN(C)CCC[N+](C)(C)CCCCCCCCCCCC.[Br-].[Br-] when tested on red blood cells (defibrinated sheep blood).
output: 4 µM

input: Recall the reported Lysis20 of CCCCCCCCCCCC[N+](C)(C)CCC[N+](C)(C)CCCCCCCCCCCC.[Br-].[Br-] when tested on red blood cells (defibrinated sheep blood).
output: 8 µM

input: Recall the reported Lysis20 of CCCCCCCCCCCC[N+](C)(C)CCC[N+](C)(CCC[N+](C)(C)CCCCCCCCCCCC)Cc1ccccc1.[Br-].[Br-].[Br-] when tested on red blood cells (defibrinated sheep blood).
output: 8 µM

input: Recall the reported Lysis20 of CCCCCCCCCCCC[N+](C)(C)CCC[N+](C)(CC)CCC[N+](C)(C)CCCCCCCCCCCC.[Br-].[Br-].[Br-] when tested on red blood cells (defibrinated sheep blood).
output: 8 µM

input: Recall the reported Lysis20 of CCCCCCCCCCCC[N+](C)(C)CC[N+](C)(C)CCCCCCCCCCCC when tested on red blood cells (defibrinated sheep blood).
output: 8 µM

input: Recall the reported Lysis20 of CCCCCCCCCCCC[N+](C)(C)CCC[N+](C)(CCCC)CCC[N+](C)(C)CCCCCCCCCCCC.[Br-].[Br-].[Br-] when tested on red blood cells (defibrinated sheep blood).
output: 8 µM

input: Recall the reported Lysis20 of CCCCCCCCCC[N+](C)(C)CCCN(C)CCC[N+](C)(C)CCCCCCCCCC when tested on red blood cells (defibrinated sheep blood).
output: 32 µM

input: Recall the reported Lysis20 of CCCCCCCCCC[N+](C)(C)CCC[N+](C)(CC)CCC[N+](C)(C)CCCCCCCCCC when tested on red blood cells (defibrinated sheep blood).
output: 32 µM

input: Recall the reported Lysis20 of CCCCCCCCCCCCCCCC[N+](C)(C)CCCCC[N+](C)(C)CCCCCCCCCCCCCCCC.[Br-].[Br-] when tested on red blood cells (defibrinated sheep blood).
output: 4 µM

input: Recall the reported Lysis20 of CCCCCCCCCCCC[N+](C)(C)CCN(C)CCN(C)CC[N+](C)(C)CCCCCCCCCCCC.[Br-].[Br-] when tested on red blood cells (defibrinated sheep blood).
output: 4 µM

input: Recall the reported Lysis20 of CCCCCCCCCCCC[N+](C)(C)CCCCC[N+](C)(C)CCCCCCCCCCCC.[Br-].[Br-] when tested on red blood cells (defibrinated sheep blood).
output: 8 µM

input: Recall the reported Lysis20 of CCCCCCCCCCCC[N+](C)(C)CC[CH-][N+](C)(CCCCCCCCCCCS)CCC[N+](C)(C)CCCCCCCCCCCC (centres unmarked) when tested on red blood cells (defibrinated sheep blood).
output: 16 µM

input: Recall the reported Lysis20 of CCCCCCCCCCCC[n+]1cccc(-c2ccc[n+](CCCCCCCCCCCC)c2)c1.[Br-].[Br-] when tested on red blood cells (defibrinated sheep blood).
output: 8 µM

input: Recall the reported Lysis20 of CCCCCCCCCCCC[N+](C)(C)CCCN(C)C.[Br-] when tested on red blood cells (defibrinated sheep blood).
output: 32 µM

input: Recall the reported Lysis20 of CCCCCCCCCCCC[n+]1ccc(-c2cc[n+](CCCCCCCCCCCC)cc2)cc1.[Br-].[Br-] when tested on red blood cells (defibrinated sheep blood).
output: 8 µM

input: Recall the reported Lysis20 of CCCCCCCCCCCC[n+]1cccc(-c2ccc[n+](Cc3ccccc3)c2)c1.[Br-].[Br-] when tested on red blood cells (defibrinated sheep blood).
output: 125 µM

input: Recall the reported Lysis20 of CCCCCCCCCCCCCCCC[n+]1ccccc1.[Cl-] [Pyr,16, reference compound] when tested on red blood cells (defibrinated sheep blood).
output: 8 µM

input: Recall the reported Lysis20 of CCCCCCCCCCCC[N+](C)(C)CC[N+](C)(C)CC[N+](C)(C)CCCCCCCCCCCC.[Br-].[Br-].[I-] when tested on red blood cells (defibrinated sheep blood).
output: 16 µM

input: Recall the reported Lysis20 of CCCCCCCCCCCC[N+](C)(C)CCC[N+](C)(CCCCCCCCCCCC)CCC[N+](C)(C)CCCCCCCCCCCC.[Br-].[Br-].[Br-] when tested on red blood cells (defibrinated sheep blood).
output: 4 µM

input: Recall the reported Lysis20 of CCCCCCCCCCCC[N+](C)(C)CCC[N+](C)(C)CCC[N+](C)(C)CCCCCCCCCCCC.[Br-].[Br-].[I-] when tested on red blood cells (defibrinated sheep blood).
output: 8 µM

input: Recall the reported Lysis20 of CCCCCCCCCCCCCCCC[N+](C)(C)CCN(C)C.[Br-] when tested on red blood cells (defibrinated sheep blood).
output: 16 µM

input: Recall the reported Lysis20 of C=CC[N+](C)(CC[N+](C)(C)CCCCCCCCCCCC)CC[N+](C)(C)CCCCCCCCCCCC.[Br-].[Br-].[Br-] when tested on red blood cells (defibrinated sheep blood).
output: 2 µM

input: Recall the reported Lysis20 of CCCCCCCCCCCC[N+](C)(C)CCC[N+](C)(CCC[N+](C)(C)CCCCCCCCCCCC)Cc1ccc(CCCCCCCC)cc1.[Br-].[Br-].[Br-] when tested on red blood cells (defibrinated sheep blood).
output: 8 µM

input: Recall the reported Lysis20 of CCCCCCCCCC[N+](C)(C)CCCCCCCCCC.[Cl-] [10,10, reference compound] when tested on red blood cells (defibrinated sheep blood).
output: 16 µM

input: Recall the reported Lysis20 of CCCCCCCCCCCC[N+](C)(C)Cc1ccccc1.[Cl-] [Bn,12, benzyldimethyldodecylammonium chloride, reference compound] when tested on red blood cells (defibrinated sheep blood).
output: 63 µM
